Sourced from paper PMC12344264

- Test summary: Cytotoxicity in primary splenocytes, alamarBlue, 72 h
- Format: cell-based
- Study conditions: mouse
Measured parameter: CC50 at 72 h (µM)
Express your answer in µM, writing the number without its unit.

Name the recorded CC50 at 72 h of the item CC(=O)OC(OC(C)=O)c1ccc([N+](=O)[O-])o1 [5-nitro-2-furaldehide diacetate, 5-Nitro-2-furaldehyde diacetate] in your answer.
11

----------
- Test summary: Cytotoxicity in primary splenocytes, alamarBlue, 72 h
- Type: cell-based
- Study conditions: mouse, primary splenocytes from healthy, non-infected mice; 72 h, alamarBlue, uninfected mice; read-out: Splenocytes CC50
Kindly state CC50 at 72 h for each of the entries shown.
Express your answer in µM, writing the number without its unit.

Name the recorded CC50 at 72 h of the item NC(=O)N/N=C/c1ccc([N+](=O)[O-])o1 in your answer.
38.9

Name the recorded CC50 at 72 h of the item O=C1NN(c2ccc(F)c(Cl)c2)C(=O)C1=Cc1ccc([N+](=O)[O-])o1 in your answer.
11.7

Name the recorded CC50 at 72 h of the item O=C1CN(/N=C/c2ccc([N+](=O)[O-])o2)C(=O)N1 in your answer.
33.2

Name the recorded CC50 at 72 h of the item N#Cc1ccc([N+](=O)[O-])o1 in your answer.
8.49
